Recorded values, source patent US11897880B2.

Biological target: Factor XIa (Homo sapiens)
Experiment: Factor XIa inhibition assay utilizing a fluorophore-quencher pair peptide substrate (FLINT)
Format: biochemical
Details: read-out: FXIa Ki
Would you kindly list pKi for each of these compounds?
Scale explanation: pKi corresponds to minus log10 of a concentration expressed in moles per litre.

Problem: # lookup: Factor XIa (Homo sapiens) pKi, key = Nc1ccc(-c2cnc([C@H]3CCc4c5c(cc(=O)n43)-c3c(ccc(Cl)c3F)CCNC5=O)[nH]2)c(F)n1 (stereo in doubt)
Solution: 8.60

Problem: System Factor XIa (Homo sapiens). Read-out pKi. Item Cn1cncc1-c1cnc([C@@H]2CCc3c4c(cc(=O)n32)-c2c(ccc(Cl)c2F)CC2(CC2)NC4=O)[nH]1 (stereo in doubt) . Report value.
Solution: 6.82

Problem: Provide pKi, tested on Factor XIa (Homo sapiens), for Nc1ccc(-c2cnc(C3CCc4c5c(cc(=O)n43)-c3c(ccc(Cl)c3F)-c3ccccc3NC5=O)[nH]2)c(F)n1 (single isomer, unassigned) .
Solution: 7.73

----------
Kindly state IC50 for each of the entries shown.
Biological target: human plasma kallikrein (Homo sapiens, UniProt P03952)
Sequence (P03952 391-638 limits assumed): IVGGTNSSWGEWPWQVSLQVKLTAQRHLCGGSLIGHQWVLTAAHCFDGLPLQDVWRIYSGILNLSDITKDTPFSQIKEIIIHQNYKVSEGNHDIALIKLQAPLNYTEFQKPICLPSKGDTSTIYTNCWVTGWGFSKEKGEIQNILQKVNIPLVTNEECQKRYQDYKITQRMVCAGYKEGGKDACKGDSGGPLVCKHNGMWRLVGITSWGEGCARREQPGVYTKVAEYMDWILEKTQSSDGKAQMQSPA
Sequence (P03952 20-390 partner limits assumed): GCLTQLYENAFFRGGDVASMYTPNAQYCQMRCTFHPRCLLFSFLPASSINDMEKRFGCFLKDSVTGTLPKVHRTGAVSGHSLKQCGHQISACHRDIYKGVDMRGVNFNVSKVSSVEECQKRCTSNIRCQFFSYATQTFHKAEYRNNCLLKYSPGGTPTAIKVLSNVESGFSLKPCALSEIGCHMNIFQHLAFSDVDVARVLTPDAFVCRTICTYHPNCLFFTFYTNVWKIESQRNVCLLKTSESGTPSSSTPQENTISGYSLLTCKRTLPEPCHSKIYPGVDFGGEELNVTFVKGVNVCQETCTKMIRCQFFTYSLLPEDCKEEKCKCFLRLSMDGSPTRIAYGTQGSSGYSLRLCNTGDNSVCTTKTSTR
Test: Kallikrein inhibition assay utilizing a quenched AMC peptide substrate (FLINT)
Conditions: 30 min preincubation, 50 μM Z-Gly-Pro-Arg-AMC, 2 nM kallikrein

Problem: // Input: Nc1ccc(-c2cnc(C3CCc4c5c(cc(=O)n43)-c3c(ccc(Cl)c3F)CC3(CC3)NC5=O)[nH]2)c(F)n1 (single isomer, unassigned) [Compound 55] . Output its IC50 only.
Solution: 0.09 µM

Problem: For the compound O=C1NC2(CC2)Cc2ccc(Cl)c(F)c2-c2cc(=O)n3c(c21)CC[C@H]3c1ncc(-c2ccn3c(Br)cnc3c2)[nH]1 (single isomer, unassigned) [Compound 71] , report IC50.
Solution: > 10 µM

Problem: Specify measured IC50 for Cn1cncc1-c1cnc([C@@H]2CCc3c4c(cc(=O)n32)-c2c(ccc(Cl)c2F)CC2(CC2)NC4=O)[nH]1 (stereo in doubt) [Compound 50] .
Solution: > 20 µM

----------
Target: human plasma kallikrein (Homo sapiens, UniProt P03952)
Assay: Kallikrein inhibition assay utilizing a quenched AMC peptide substrate (FLINT)
Conditions: 30 min preincubation, 50 μM Z-Gly-Pro-Arg-AMC, 2 nM kallikrein
Record form. Attribute: pIC50. Fill in for each entry.
Scale explanation: pIC50 corresponds to minus log10 of a concentration expressed in moles per litre.

Problem: Return pIC50 (reported value) for this compound: Nc1ccc(-c2cnc([C@@H]3CCc4c5c(cc(=O)n43)-c3c(ccc(Cl)c3F)CC3(CCC3)NC5=O)[nH]2)c(F)n1 (stereo in doubt)
Solution: 6.64

Problem: Determine from records and report pIC50 for Nc1ccc(-c2cnc(C3CCc4c5c(cc(=O)n43)-c3c(ccc(Cl)c3F)-c3ccncc3NC5=O)[nH]2)c(F)n1 (single isomer, unassigned) [Compound 37]
Solution: 5.40

Problem: Query pIC50 for Nc1ccc(-c2cnc([C@H]3CCc4c5c(cc(=O)n43)-c3c(ccc(Cl)c3F)CC3(CCCC3)NC5=O)[nH]2)c(F)n1 (stereo in doubt)
Solution: 5.21

Problem: Give pIC50 for the following compound: Nc1ccc(-c2cnc(C3CCc4c5c(cc(=O)n43)-c3cc(Cl)ccc3CC3(CC3)NC5=O)[nH]2)c(F)n1 (centres unmarked)
Solution: 6.33

Problem: Name the recorded pIC50 of the compound listed here: O=C1NC2(CC2)Cc2ccc(Cl)c(F)c2-c2cc(=O)n3c(c21)CC[C@H]3c1ncc(-c2ccc3[nH]ccc3c2)[nH]1 (single isomer, unassigned) [Compound 13]
Solution: 7.15

----------
Biological target: human plasma kallikrein (Homo sapiens, UniProt P03952)
Test: Kallikrein inhibition assay utilizing a quenched AMC peptide substrate (FLINT)
Conditions: 30 min preincubation, 50 μM Z-Gly-Pro-Arg-AMC, 2 nM kallikrein
Parameter measured: IC50

Problem: For the compound COCCN1C(=O)c2c(cc(=O)n3c2CC[C@@H]3c2ncc(-c3ccc(N)nc3F)[nH]2)-c2c(ccc(Cl)c2F)CC12CC2 (stereo in doubt) [Compound 24] , give its reported IC50.
Solution: > 10 µM

Problem: Please give measured IC50 of the following entry: Nc1ccc(-c2cnc(C3CCc4c5c(cc(=O)n43)-c3c(ccc(Cl)c3F)-c3ccccc3NC5=O)[nH]2)c(F)n1 (single isomer, unassigned) [Compound 39]
Solution: > 10 µM

Problem: Indicate its recorded IC50; the compound in question is Cn1cc(-c2cnc(C(CC3CC3)n3cc4c(cc3=O)-c3c(ccc(Cl)c3F)CC3(CC3)NC4=O)[nH]2)ccc1=O (single isomer, unassigned) [Compound 60]
Solution: > 10 µM

----------
Would you mind telling me the reported IC50 of each entry?
Molecular target: Factor XIa (Homo sapiens, UniProt P03951)
Sequence (P03951 388-625 limits assumed): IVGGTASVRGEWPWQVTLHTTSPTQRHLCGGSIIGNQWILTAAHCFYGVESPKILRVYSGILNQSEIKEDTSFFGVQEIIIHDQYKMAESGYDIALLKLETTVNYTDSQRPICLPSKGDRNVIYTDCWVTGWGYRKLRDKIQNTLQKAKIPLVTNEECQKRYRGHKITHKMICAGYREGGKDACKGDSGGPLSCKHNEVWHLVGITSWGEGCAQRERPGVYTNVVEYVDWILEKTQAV
Sequence (P03951 19-387 partner limits assumed): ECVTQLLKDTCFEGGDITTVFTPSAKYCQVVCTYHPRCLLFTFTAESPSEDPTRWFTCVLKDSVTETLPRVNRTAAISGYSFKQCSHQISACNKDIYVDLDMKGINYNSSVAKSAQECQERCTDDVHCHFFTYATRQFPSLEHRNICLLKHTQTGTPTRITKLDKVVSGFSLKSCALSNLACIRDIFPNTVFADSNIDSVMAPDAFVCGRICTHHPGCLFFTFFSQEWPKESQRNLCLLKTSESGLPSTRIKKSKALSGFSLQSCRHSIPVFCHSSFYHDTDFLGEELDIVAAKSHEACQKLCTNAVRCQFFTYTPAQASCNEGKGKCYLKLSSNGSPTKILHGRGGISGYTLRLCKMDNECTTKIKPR
Test: Factor XIa inhibition assay utilizing a fluorophore-quencher pair peptide substrate (FLINT)
Assay type: biochemical
Settings: cells that print μM themselves in the nM column; same assay conditions; read-out: FXIa IC50

Problem: Please list IC50 recorded for the molecule O=C1NC2(CC2)Cc2ccc(Cl)c(F)c2-c2cc(=O)n3c(c21)CC[C@H]3c1ncc(-c2ccc3scnc3c2)[nH]1 (stereo in doubt)
Solution: 2.39 µM

Problem: Query IC50 for Cn1cc(-c2cnc(C(CC3CC3)n3cc4c(cc3=O)-c3c(ccc(Cl)c3F)CC3(CC3)NC4=O)[nH]2)ccc1=O (single isomer, unassigned) [Compound 63]
Solution: 1.16 µM

Problem: Using the record for Cn1nncc1-c1cnc([C@@H]2CCc3c4c(cc(=O)n32)-c2c(ccc(Cl)c2F)CCNC4=O)[nH]1 (stereo in doubt) , state its measured IC50.
Solution: > 10 µM

Problem: Tell me its IC50 given Cn1cncc1-c1cnc([C@H]2CCc3c4c(cc(=O)n32)-c2c(ccc(Cl)c2F)CC2(CC2)NC4=O)[nH]1 (stereo in doubt) as the entry.
Solution: > 10 µM

Problem: Quickly give me recorded IC50 for Cc1nc2cc(-c3cnc([C@@H]4CCc5c6c(cc(=O)n54)-c4c(ccc(Cl)c4F)CC4(CC4)NC6=O)[nH]3)ccc2s1 (stereo in doubt)
Solution: 2.29 µM

Problem: Return IC50 (reported value) for this molecule: Nc1ccc(-c2cnc([C@@H]3CCc4c5c(cc(=O)n43)-c3c(ccc(Cl)c3F)CC3(CC3)N(CCO)C5=O)[nH]2)c(F)n1 (single isomer, unassigned) [Compound 9]
Solution: 6.58 µM

Problem: Give IC50 for CC1(C)Cc2ccc(Cl)c(F)c2-c2cc(=O)n3c(c2C(=O)N1)CC[C@H]3c1ncc(-c2ccc(N)nc2F)[nH]1 (single isomer, unassigned)
Solution: 7.65 µM

Problem: Report IC50 for Nc1ccc(-c2cnc([C@@H]3CCc4c5c(cc(=O)n43)-c3c(ccc(Cl)c3F)CC3(CC3)N(CCO)C5=O)[nH]2)c(F)n1 (single isomer, unassigned) [Compound 11]
Solution: 1.17 µM

Problem: Please indicate IC50 recorded for Cn1cc(-c2cnc(C(CC3CC3)n3cc4c(cc3=O)-c3c(ccc(Cl)c3F)CC3(CC3)NC4=O)[nH]2)ccc1=O (single isomer, unassigned) [Compound 60]
Solution: ~9.61 µM

Problem: Determine its reported IC50: Cn1ncc(-c2cnc(C(CC3CC3)n3cc4c(cc3=O)-c3c(ccc(Cl)c3F)CC3(CC3)NC4=O)[nH]2)cc1=O (single isomer, unassigned) [Compound 58]
Solution: > 10 µM

Problem: // fetch IC50 given entry CC1(C)Cc2ccc(Cl)c(F)c2-c2cc(=O)n3c(c2C(=O)N1)CC[C@@H]3c1ncc(-c2ccc(N)nc2F)[nH]1 (single isomer, unassigned)
Solution: 1.2 µM

----------
Target: human plasma kallikrein (Homo sapiens, UniProt P03952)
Experiment: Kallikrein inhibition assay utilizing a quenched AMC peptide substrate (FLINT)
Conditions: 30 min preincubation, 50 μM Z-Gly-Pro-Arg-AMC, 2 nM kallikrein
I'd appreciate it if you could supply IC50 values for the items below.

Problem: # return IC50 for CN1C(=O)c2c(cc(=O)n3c2CC[C@H]3c2ncc(-c3ccc(N)nc3F)[nH]2)-c2c(ccc(Cl)c2F)CC12CC2 (stereo in doubt) , test system: human plasma kallikrein (Homo sapiens, UniProt P03952)
Solution: > 10 µM

Problem: Would you please give the reported IC50 of Nc1ccc(-c2cnc([C@H]3CCc4c5c(cc(=O)n43)-c3c(ccc(Cl)c3F)CC3(CC3)NC5=O)[nH]2)c(F)n1 (stereo in doubt) with human plasma kallikrein (Homo sapiens, UniProt P03952)?
Solution: > 10 µM

Problem: Please report IC50 with human plasma kallikrein (Homo sapiens, UniProt P03952) for item Cn1nncc1-c1cnc([C@H]2CCc3c4c(cc(=O)n32)-c2c(ccc(Cl)c2F)CCNC4=O)[nH]1 (stereo in doubt) .
Solution: > 10 µM

Problem: Send back human plasma kallikrein (Homo sapiens, UniProt P03952) IC50 of Cn1ccc(-c2cnc([C@H](CC3CC3)n3cc4c(cc3=O)-c3c(ccc(Cl)c3F)CC3(CC3)NC4=O)[nH]2)cc1=O (single isomer, unassigned) only.
Solution: 8.08 µM

Problem: Answer briefly: IC50 recorded on human plasma kallikrein (Homo sapiens, UniProt P03952) for "Nc1ccc(-c2cnc([C@@H]3CCc4c5c(cc(=O)n43)-c3c(ccc(Cl)c3F)CC3(CC3)NC5=O)[nH]2)c(Cl)n1"
Solution: 0.07 µM

Problem: Please respond with reported IC50 (system human plasma kallikrein (Homo sapiens, UniProt P03952)) for O=C1NC2(CC2)Cc2ccc(Cl)c(F)c2-c2cc(=O)n3c(c21)CC[C@@H]3c1ncc(-c2ccc3[nH]ccc3c2)[nH]1 (single isomer, unassigned) [Compound 14] .
Solution: > 10 µM
